- System under test: Photinus pyralis (firefly) luciferase (Photinus pyralis, UniProt P08659)
- Sequence (P08659 whole entry): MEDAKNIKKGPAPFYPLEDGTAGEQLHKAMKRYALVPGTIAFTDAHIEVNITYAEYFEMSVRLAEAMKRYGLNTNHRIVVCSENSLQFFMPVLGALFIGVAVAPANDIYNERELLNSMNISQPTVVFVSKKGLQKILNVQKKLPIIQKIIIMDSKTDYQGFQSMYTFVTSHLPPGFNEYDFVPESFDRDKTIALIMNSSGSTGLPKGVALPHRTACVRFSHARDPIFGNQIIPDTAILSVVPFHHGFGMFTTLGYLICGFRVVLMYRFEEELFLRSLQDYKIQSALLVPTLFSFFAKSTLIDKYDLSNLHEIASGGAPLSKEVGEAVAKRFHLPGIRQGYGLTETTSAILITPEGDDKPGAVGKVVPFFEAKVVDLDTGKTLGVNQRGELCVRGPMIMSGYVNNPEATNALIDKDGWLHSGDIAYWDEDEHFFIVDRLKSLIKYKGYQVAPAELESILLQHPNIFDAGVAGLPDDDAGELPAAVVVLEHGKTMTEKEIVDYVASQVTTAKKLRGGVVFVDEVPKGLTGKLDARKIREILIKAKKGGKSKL
- Assay text: biochemical
- Format: biochemical
Where a name gives a salt, the structure may show the parent alone.
Reported property: Luciferase IC50

The following compounds have reported results that may help.
Compound: CCCCCCCCCCCCCCCC[N+](C)(C)C.[Cl-] [Hexadecyl trimethyl ammonium chloride]
Measured value: Inactive

Compound: C[C@@H]1CN(CCCn2c3ccccc3c3ccccc32)C[C@H](C)N1.Cl.Cl [Rimcazole dihydrochloride]
Measured value: Inactive

Compound: Cc1cc(-c2cc(C)c(N)c(C)c2)cc(C)c1N
Measured value: Inactive

Compound: C1CCC(NC2CCCCC2)CC1
Measured value: Inactive

Compound: c1ccc2cc3c(cc2c1)-c1cccc2cccc-3c12
Measured value: Inactive

Compound: CN(Cc1ccc(C(C)(C)C)cc1)Cc1cccc2ccccc12
Measured value: Inactive

Field request: Luciferase IC50 | item: CCOC(=O)N(C)C(=O)CSP(=S)(OCC)OCC
Inactive

Field request: Luciferase IC50 | item: ClC1=C(Cl)C2(Cl)C3C4C=CC(C4)C3C1(Cl)C2(Cl)Cl (stereo not drawn)
Inactive

Field request: Luciferase IC50 | item: CCN(CCCc1ccccc1)CCCc1ccccc1 [Alverine citrate]
Inactive
